# Tested on: HOP-92 NSCLC
# experimentalProtocol: NCI-60 one-dose screen, 48 h
# conditionNotes: 10 µM unless noted
The panel holds about 83,000 compounds, 20% with a hit somewhere; the sample as a whole holds those more often. The source made the active and inactive calls. Rule for the calls: active = growth percent below 10; inactive = the rest.
The categories you may choose from are active, inactive

Known results for compounds:
| compound | assignedCategory |
| --- | --- |
| Fc1cccc(CNc2c3ccccc3nc3ccccc23)c1F | active |
| CNc1nc(S(=O)c2ccc(C#N)cc2)nc2ccccc12 (stereo unspecified) | inactive |
| CCCCCCCCCCCCCCCCCCOc1ccccc1CC(=O)OCC[N+]1(C)CCCC1 | inactive |
| CCOC(=O)c1cc(-c2ccc([N+](=O)[O-])cc2)n(-c2ccc(C(=O)O)c(O)c2)c1C | inactive |
| Fc1cc2c(cc1Cl)N(c1ncnc3ccc(-c4cnc5[nH]ncc5c4)cc13)CC2 | inactive |

(Q) Query: recorded result category for O=C(Nc1ncc(Cc2ccc(Cl)c(C(F)(F)F)c2)s1)c1ccc2nnsc2c1 in this test
(A) inactive

(Q) Would you mind telling me which call this test gave c1ccc(CNc2c3ccccc3nc3ccccc23)cc1 ?
(A) inactive

(Q) State the result this test recorded for Clc1ccc(Nc2nnc(COc3ccccc3)c3ccccc23)cc1 .
(A) active

(Q) State the result this test recorded for Nc1ncnc2c1N=C(c1ccc(Cl)cc1)CC(c1ccc3c(c1)OCO3)N2 (stereo unspecified) .
(A) inactive

(Q) Which outcome was entered for the compound OCCOCCN(Cc1ccccn1)Cc1cc(I)cc(I)c1O in this test?
(A) inactive

(Q) Identify the outcome logged in this assay for the compound shown: CC(C)CCC[C@@H](C)[C@H]1CC[C@H]2[C@@H]3CC=C4C[C@@H](C(C(=O)O)C(=O)O)CC[C@]4(C)[C@H]3CC[C@]12C
(A) active

(Q) Please share the test call associated with COC(=O)CCC(=O)C(=O)OC .
(A) active

(Q) Each compound tested received a call. Report the one for COc1ccc(-c2nc3c(c(-c4ccccc4)nn3-c3ccccc3)c(-c3ccc(N4CCOCC4)cc3)c2C#N)cc1 .
(A) inactive

(Q) Would you mind telling me which call this test gave O=C1c2cccnc2C(=O)c2c1c(C(=O)NCCCN1CCCCC1)c1ccccn21 ?
(A) active

(Q) Hi, do you know how Brc1c2c(c(Br)c3ccccc13)CCCC2 came out in this test?
(A) inactive
